Target: T1, interleukin-23 receptor (IL-23R), Q5VWK5
T1 chain: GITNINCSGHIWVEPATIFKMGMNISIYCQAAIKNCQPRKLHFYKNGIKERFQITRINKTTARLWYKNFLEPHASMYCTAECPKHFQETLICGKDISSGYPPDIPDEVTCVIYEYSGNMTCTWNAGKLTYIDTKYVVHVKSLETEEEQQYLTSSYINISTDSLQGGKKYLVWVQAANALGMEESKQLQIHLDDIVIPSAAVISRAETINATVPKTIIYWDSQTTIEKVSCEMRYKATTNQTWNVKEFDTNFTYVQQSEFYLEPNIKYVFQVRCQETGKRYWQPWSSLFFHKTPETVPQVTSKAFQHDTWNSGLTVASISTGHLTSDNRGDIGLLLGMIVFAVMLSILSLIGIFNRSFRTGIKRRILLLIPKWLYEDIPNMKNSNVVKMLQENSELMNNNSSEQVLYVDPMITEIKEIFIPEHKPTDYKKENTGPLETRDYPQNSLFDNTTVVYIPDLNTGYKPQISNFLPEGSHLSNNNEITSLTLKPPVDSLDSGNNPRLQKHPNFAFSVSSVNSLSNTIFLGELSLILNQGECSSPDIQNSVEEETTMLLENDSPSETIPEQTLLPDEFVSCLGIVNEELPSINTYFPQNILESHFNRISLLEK
Experiment: cell-based or functional assay
Non-standard residues stand in square brackets, D forms with d. No end group written: not given here. 2Nal(6-OH) = N[C@@H](Cc1ccc2cc(O)ccc2c1)C(=O)O; Trp(7-Me) = Cc1cccc2c(C[C@H](N)C(=O)O)c[nH]c12; AEF = NCCOc1ccc(C[C@H](N)C(=O)O)cc1; 3Pal = N[C@@H](Cc1cccnc1)C(=O)O; Pen = CC(C)(S)[C@H](N)C(=O)O; αMeC = C[C@](N)(CS)C(=O)O; Thp = NC1(C(=O)O)CCOCC1; Abu = CC[C@H](N)C(=O)O; Sar = CNCC(=O)O
Provide the reported IL23R Reporter Assay IC50 of each item.

binder | assay-endpoint | result
R[Pen]NT[Trp(7-Me)]K[Pen][2‑amino‑3‑(4-(2-aminoethoxy)phenyl)propanoic acid][2‑amino‑3‑(6-hydroxynaphthalen-2-yl)propanoic acid][Thp]EN[3Pal][Sar] (not fully specified (bridges); ends and bridges not checked; also: K6: lipidated lysine, lipid not given here) [SEQ ID NO: 84] | IL23R Reporter Assay IC50 | < 10 nM

Required: IL23R Reporter Assay IC50, one value per binder below.
1. R[Abu]NTWK(Ac)[αMeC][AEF][2Nal(6-OH)][Thp]K(Ac)N[3Pal][Sar] (ends and bridges not checked) [SEQ ID NO: 28]
2. [Pen]NT[Trp(7-Me)]K(Ac)[Pen][2‑amino‑3‑(4-(2-aminoethoxy)phenyl)propanoic acid][2‑amino‑3‑(6-hydroxynaphthalen-2-yl)propanoic acid][Thp]EN[3Pal][Sar] (not fully specified (bridges); ends and bridges not checked) [SEQ ID NO: 378]

[reply]
1: < 10 nM; 2: < 10 nM
